We begin with a simple list: items and their reported inhibition at 10 µM.
tgt: IKKε (Homo sapiens, UniProt Q14164)
Construct: purchased Life Technologies (Invitrogen)
Sequence (Q14164 whole entry): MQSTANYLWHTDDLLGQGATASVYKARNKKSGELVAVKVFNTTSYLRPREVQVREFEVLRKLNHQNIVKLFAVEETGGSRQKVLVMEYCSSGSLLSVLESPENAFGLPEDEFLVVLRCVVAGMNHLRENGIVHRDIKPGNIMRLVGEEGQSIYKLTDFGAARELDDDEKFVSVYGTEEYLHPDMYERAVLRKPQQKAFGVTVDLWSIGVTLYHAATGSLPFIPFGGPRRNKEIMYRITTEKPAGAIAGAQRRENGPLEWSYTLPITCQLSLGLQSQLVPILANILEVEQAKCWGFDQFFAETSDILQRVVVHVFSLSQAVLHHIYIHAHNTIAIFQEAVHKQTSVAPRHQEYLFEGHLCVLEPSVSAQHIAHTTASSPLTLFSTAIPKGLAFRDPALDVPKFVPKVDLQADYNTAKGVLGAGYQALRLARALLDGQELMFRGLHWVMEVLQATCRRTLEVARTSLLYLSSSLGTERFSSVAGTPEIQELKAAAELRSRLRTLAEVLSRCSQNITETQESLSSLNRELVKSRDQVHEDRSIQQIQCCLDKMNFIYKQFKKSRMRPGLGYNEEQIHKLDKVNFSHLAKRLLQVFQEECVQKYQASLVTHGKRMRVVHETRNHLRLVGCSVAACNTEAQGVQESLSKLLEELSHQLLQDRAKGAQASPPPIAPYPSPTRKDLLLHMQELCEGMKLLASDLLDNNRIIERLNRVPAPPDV
procedure.text: MCE kinase assay, phosphorylation of 5-FAM-TBK1-Tide by IKKε
Format: biochemical
cond: compound at 10 µM, after 2 hours (at completion of the assay); LOPAC set; read-out: percent inhibition of IKKε
Structures can show the parent of a compound that is named as a salt.
recorded.metric: inhibition at 10 µM (%)

> print(dat)
                                   compound                                  tgt      recorded.metric  value.unit  value.measured
1  CC(=O)NCCc1c[nH]c2ccccc12 [UNC10100161, N-Acetyltryptamine]  IKKε (Homo sapiens, UniProt Q14164)  inhibition at 10 µM           %              24
2  Oc1c2ccccc2c2c3c(cccc13)N=N2 [UNC10100533, SP600125]  IKKε (Homo sapiens, UniProt Q14164)  inhibition at 10 µM           %            53.5
3  CC(=O)OCC1=C(C(=O)O)N2C(=O)[C@@H](NC(=O)CSc3ccncc3)[C@H]2SC1 [UNC10100339, Cephapirin sodium salt]  IKKε (Homo sapiens, UniProt Q14164)  inhibition at 10 µM           %              60
4  COc1ccc2c(c1)/C(=C/c1cnc[nH]1)C(=O)N2 [UNC10100994, SU9516]  IKKε (Homo sapiens, UniProt Q14164)  inhibition at 10 µM           %              66
